Values from the supplement of paper PMC11865577

tested on: TO-3-N3 (biotin conjugate); test: pull-down binding Z-score (relative to library population); higher = stronger binding; details: RNA library: Library-2
Entries annotated with measured pull-down binding Z-score
OBSERVATION TYPE: pull-down binding Z-score

| SEQUENCE CONTENT | TARGET ENTITY | MEASURED NUMBER |
| --- | --- | --- |
| UAGAGGGUAAAAUUAAUAACCUUCUA [hsa-mir-628] | TO-3-N3 (biotin conjugate) | 0.214 |
| AGGGCAAGUCCAAAGGUAUACAGUUGGUCUGUUCA [hsa-mir-7107] | TO-3-N3 (biotin conjugate) | -0.459 |
| GUCACAAAUUCAAAUAAAGUGAG [hsa-mir-4693] | TO-3-N3 (biotin conjugate) | 1.05 |
| GGAGGAGGAGGAGGAGGA [G4_r(GGA)6] | TO-3-N3 (biotin conjugate) | 4.17 |
| GCGCGGCCAGAAACUGGCAGCGC [mismatch-GA] | TO-3-N3 (biotin conjugate) | -0.773 |
| CCAAGGCUCUGGGGUCUCACCCUUGG [hsa-mir-6842] | TO-3-N3 (biotin conjugate) | 0.484 |
| CAAUCAUGUGUAAUUAGAUAUGAUUG [hsa-mir-514b] | TO-3-N3 (biotin conjugate) | -1.06 |
| CUUUUUGCUGAUGGAGGGUCUUGCCUCCAUGGGGAUGGCUG [hsa-mir-4502] | TO-3-N3 (biotin conjugate) | 0.828 |
| GGUGAAGGACGGGUCCAGUAGUUCGCUACUGUUGAGUAGAGUGUGAGCUCC [BabySpinach] | TO-3-N3 (biotin conjugate) | 1.09 |
| CUAUCAGGCCGGUAG [DMSMaPseq_invitro_SARS-CoV-2_Motif_406] | TO-3-N3 (biotin conjugate) | -0.61 |
| GGUUCAAGUUUGGCUCCAUCUUUAUGAAA [hsa-mir-4506] | TO-3-N3 (biotin conjugate) | -0.0094 |
| UUUGCUACUGAAAGUAAUGGCAAA [hsa-mir-548z] | TO-3-N3 (biotin conjugate) | -0.614 |
| GGUCAGAAUGAUC [IAV_invivo_NP_5_Motif_12+IAV_invivo_NP_5_Motif_12] | TO-3-N3 (biotin conjugate) | -0.394 |
| AUAUAAAAUGCAAUUA [hsa-mir-3945] | TO-3-N3 (biotin conjugate) | 0.256 |
| AUGGUCUCUAUAUUUAUGAUGAUUAA [hsa-mir-889] | TO-3-N3 (biotin conjugate) | 0.533 |
| AACCCUCACCUUAUGGGUU | TO-3-N3 (biotin conjugate) | -0.558 |
| ACAGGAGUCACCUUUUGU [SHAPE_invitro_SARS-CoV-2_Motif_112] | TO-3-N3 (biotin conjugate) | -0.709 |
| CCCAGUGCGGGG [IAV_invivo_NP_5_Motif_5+IAV_invivo_NP_5_Motif_5] | TO-3-N3 (biotin conjugate) | -0.794 |
| GUGUUUGUGACAUAAUUUGU [hsa-mir-325] | TO-3-N3 (biotin conjugate) | 0.174 |
| CCUAAACGAACAUGAAAUUUCUUGUUUUCUUAGG | TO-3-N3 (biotin conjugate) | -0.979 |
| CUCUGGUCUAUAAUGGGUUAAAUAGUAGAG [hsa-mir-609] | TO-3-N3 (biotin conjugate) | -0.334 |
| GGCGGGCGGCGGUGCCCGUC [hsa-mir-4449] | TO-3-N3 (biotin conjugate) | 0.739 |
